Target: rabbit platelets (Oryctolagus cuniculus, UniProt G1TEI7)
Sequence (G1TEI7 1-342): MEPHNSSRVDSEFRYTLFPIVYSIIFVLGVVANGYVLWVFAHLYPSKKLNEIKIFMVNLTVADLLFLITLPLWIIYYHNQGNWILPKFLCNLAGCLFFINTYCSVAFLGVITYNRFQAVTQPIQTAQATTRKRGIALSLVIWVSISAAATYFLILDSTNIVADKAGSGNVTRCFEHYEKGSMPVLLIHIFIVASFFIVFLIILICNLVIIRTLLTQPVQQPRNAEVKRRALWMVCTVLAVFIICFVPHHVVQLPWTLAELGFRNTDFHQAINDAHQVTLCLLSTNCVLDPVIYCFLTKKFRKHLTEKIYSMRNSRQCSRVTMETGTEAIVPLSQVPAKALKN
Assay: in vitro platelet agglutination inhibition test (PAF-induced)
Format: cell-based
Conditions: rabbit platelet-rich plasma, PAF final concentration 10 ng/ml, 37°C; read-out: PAF-Induced Platelet Aggregation IC50 (converted)
readoutLabel: IC50 (nM)

querySmiles	experimentalResult
Cc1nnc2n(CCCN3CCC(OC(c4ccccc4)c4ccccc4)CC3)c3ccccc3n12	38.6
Cc1nnc2n(CCCN3CCC(C(O)(c4ccc(F)cc4)c4ccc(F)cc4)CC3)c3ccccc3n12	190
COc1ccc(C(=C2CCN(CCCN3Cc4nnc(C)n4-c4ccccc43)CC2)c2ccccc2)cc1OC	952
COc1cccc(C(=C2CCN(CCCN3Cc4nnc(C)n4-c4ccccc43)CC2)c2ccccc2)c1	475

* * *

Molecular target: rabbit platelets (Oryctolagus cuniculus, UniProt G1TEI7)
Assay: in vitro platelet agglutination inhibition test (PAF-induced)
Assay type: cell-based
Conditions: rabbit platelet-rich plasma, PAF final concentration 10 ng/ml, 37°C; read-out: PAF-Induced Platelet Aggregation IC50 (converted)
IC50 listing for selected molecules.

molecule	IC50 / nM
Cc1cccc(C(O)(c2ccccc2)C2CCN(CCCN3Cc4nnc(C)n4-c4ccccc43)CC2)c1 (stereo not shown) [Compound 132]	70.9
Cc1nnc2n(CCCN3CCC(C(O)(c4ccccc4)c4ccccc4)CC3)c3ccccc3n12 [Compound 198]	124
Cc1nnc2n1-c1ccccc1N(CCCN1CCC(=C(c3ccccc3)c3ccc(N(C)C)cc3)CC1)C2 [Compound 156]	1120
CCc1nnc2n1-c1ccccc1N(CCCN1CCC(=C(c3ccccc3)c3ccccc3)CC1)C2 [Compound 92]	1350
Cc1cccc(C(O)(c2cccc(C)c2)C2CCN(CCCN3Cc4nnc(C)n4-c4ccccc43)CC2)c1 [Compound 134]	97.8
Cc1ccc2[nH]cc(C3CCN(CCCn4c5ccccc5n5c(C)nnc45)CC3)c2c1 [Compound 197]	586
Cc1nnc2n1-c1ccccc1N(CCCN1CCC(=C3c4ccccc4C=Cc4ccccc43)CC1)C2 [Compound 78]	4800
Cc1nnc2n(CCCN3CCC(=C4c5ccccc5C=Cc5ccccc54)CC3)c3ccccc3n12 [Compound 206]	4320
COc1ccc(C(O)(c2ccc(OC)c(OC)c2)C2CCN(CCCN3Cc4nnc(C)n4-c4ccccc43)CC2)cc1OC [Compound 138]	1320
Cc1nnc2n1-c1ccc(F)cc1N(CCCN1CCC(c3c[nH]c4ccccc34)CC1)C2 [Compound 66]	4270
Cc1nnc2n1-c1ccccc1N(CCCN1CCC(=C(c3ccccc3)c3cccs3)CC1)C2 [Compound 164]	747
Cc1nnc2n1-c1ccccc1N(CCCN1CCC(=C3c4ccccc4COc4ccccc43)CC1)C2 [Compound 88]	1710
COc1ccc(C(=C2CCN(CCCN3Cc4nnc(C)n4-c4ccccc43)CC2)c2ccc(OC)cc2)cc1 [Compound 148]	597
Cc1nnc2n(CCCN3CCC(=C(c4ccccc4)c4ccccc4)CC3)c3ccccc3n12 [Compound 201]	277
Cc1nnc2n1-c1ccccc1N(CCCN1CCC(=C(c3ccc(Cl)cc3)c3ccc(Cl)cc3)CC1)C2 [Compound 150]	937
CCc1nnc2n(CCCN3CCC(c4c[nH]c5ccccc45)CC3)c3ccccc3n12 [Compound 193]	1550
CCn1cc(C2CCN(CCCN3Cc4nnc(C)n4-c4ccccc43)CC2)c2ccccc21 [Compound 64]	2800
COc1ccccc1N1CCN(CCCN2Cc3nnc(C)n3-c3ccccc32)CC1 [Compound 86]	5260
COc1cccc(C(O)(c2ccccc2)C2CCN(CCCN3Cc4nnc(C)n4-c4ccccc43)CC2)c1 (stereo not shown) [Compound 133]	120
COc1ccccc1C(=C1CCN(CCCN2Cc3nnc(C)n3-c3ccccc32)CC1)c1ccccc1OC [Compound 145]	1700
COc1cccc(C(=C2CCN(CCCN3Cc4nnc(C)n4-c4ccccc43)CC2)c2cccc(OC)c2)c1 [Compound 143]	411
Cc1nnc2n1-c1ccccc1N(CCCN1CCC(Nc3nc4ccccc4n3Cc3ccc(F)cc3)CC1)C2 [Compound 73]	8170
Cc1nnc2n1-c1ccccc1N(CCCN1CCC(=C(c3cccs3)c3cccs3)CC1)C2 [Compound 165]	1520
CCc1nnc2n1-c1ccccc1N(CCCN1CCC(c3c[nH]c4ccccc34)CC1)C2 [Compound 52]	12300
Cc1nnc2n(CCCN3CCC(c4c[nH]c5ccc(Cl)cc45)CC3)c3ccccc3n12 [Compound 195]	313
COc1ccc(C(O)(c2ccccc2)C2CCN(CCCN3Cc4nnc(C)n4-c4ccccc43)CC2)cc1OC (stereo not shown) [Compound 130]	578
Cc1nnc2n1-c1ccccc1N(CCCN1CCC(C(O)(c3ccccc3)c3cccs3)CC1)C2 (stereo not shown) [Compound 129]	340
Cc1nnc2n1-c1ccccc1N(CCCN1CCC(=C(c3ccccc3)c3cccc(Cl)c3)CC1)C2 [Compound 154]	372
CCCc1nnc2n(CCCN3CCC(c4c[nH]c5ccccc45)CC3)c3ccccc3n12 [Compound 194]	80.8
CCCc1nnc2n1-c1ccccc1N(CCCN1CCC(c3c[nH]c4ccccc34)CC1)C2 [Compound 53]	3960
Cc1cccc(C(=C2CCN(CCCN3Cc4nnc(C)n4-c4ccccc43)CC2)c2cccc(C)c2)c1 [Compound 147]	173
